All figures here come from patent US20130324522A1.

biological target: TRP channel (TRPM8) (Mus musculus, UniProt Q8R4D5); construct: Full-length cDNAs for mosquito (Anopheles gambiae) odorant receptor (OR1, OR2, OR7, OR8, OR28), and fly (Drosophila melanogaster) odorant receptor (Or47a, Or83b), mouse TRP channel (TRPM8); expressed in transfected cells; experiment: Ca2+-imaging of stable HEK293T cell line TRPM8; assay type: cell-based; conditions: HEK-293T; compound applied at 4 μM; read-out: Percent Inhibition TRPM8
Sequence (Q8R4D5 whole entry): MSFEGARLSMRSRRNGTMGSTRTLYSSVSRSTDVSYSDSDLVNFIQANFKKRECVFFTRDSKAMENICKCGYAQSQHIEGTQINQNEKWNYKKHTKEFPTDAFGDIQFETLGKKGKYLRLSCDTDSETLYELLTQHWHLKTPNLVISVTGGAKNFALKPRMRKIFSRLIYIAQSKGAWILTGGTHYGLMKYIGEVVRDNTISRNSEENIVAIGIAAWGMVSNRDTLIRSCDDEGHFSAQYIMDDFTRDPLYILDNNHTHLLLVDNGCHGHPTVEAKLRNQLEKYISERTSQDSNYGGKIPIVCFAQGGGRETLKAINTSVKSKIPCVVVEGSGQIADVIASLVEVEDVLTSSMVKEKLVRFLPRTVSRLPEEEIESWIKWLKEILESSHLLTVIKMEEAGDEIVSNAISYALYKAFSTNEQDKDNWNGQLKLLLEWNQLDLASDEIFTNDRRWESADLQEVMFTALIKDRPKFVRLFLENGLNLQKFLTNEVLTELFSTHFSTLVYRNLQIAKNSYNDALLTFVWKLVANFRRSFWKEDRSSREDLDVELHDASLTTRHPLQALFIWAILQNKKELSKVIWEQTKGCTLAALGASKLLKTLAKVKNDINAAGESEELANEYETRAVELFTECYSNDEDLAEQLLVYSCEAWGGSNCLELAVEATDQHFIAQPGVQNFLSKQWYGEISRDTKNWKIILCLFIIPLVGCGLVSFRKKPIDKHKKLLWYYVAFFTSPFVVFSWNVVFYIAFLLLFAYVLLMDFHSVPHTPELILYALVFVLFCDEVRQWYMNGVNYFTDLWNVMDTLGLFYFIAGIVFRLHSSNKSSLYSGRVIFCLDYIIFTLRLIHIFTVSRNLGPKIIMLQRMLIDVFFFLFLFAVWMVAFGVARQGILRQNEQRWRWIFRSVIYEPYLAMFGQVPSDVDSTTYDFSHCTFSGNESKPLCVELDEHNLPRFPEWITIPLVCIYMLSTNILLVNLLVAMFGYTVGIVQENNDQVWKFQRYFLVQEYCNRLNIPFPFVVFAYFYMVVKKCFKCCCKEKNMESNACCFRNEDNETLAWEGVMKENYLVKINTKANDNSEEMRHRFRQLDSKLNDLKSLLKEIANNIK
Exercise: for every item that follows, state its recorded inhibition at 4 µM.

Answered cases to consult:
{"molecule": "CC(=O)OCC(=O)NCC1Cc2cc(Oc3ccccc3)ccc2O1 (stereo not drawn)", "result-value": "< 25%"}
{"molecule": "CC(NCc1ccccc1)c1nc2ccccc2c(=O)n1-c1ccc(Cl)cc1 (stereo not drawn)", "result-value": "< 25%"}
{"molecule": "CC(NC(=O)c1cc2n(n1)CCN(Cc1c(Cl)cccc1Cl)C2=O)c1ccccc1 (stereo not drawn)", "result-value": "< 25%"}

Give measured inhibition at 4 µM for every item shown.
1. C=C[C@@](C)(O)CCC1C(=C)CCC2[C@@](C)(CO)CCC[C@]12C (stereo partly drawn)
2. O=C(NCCC(=O)N1CCOC(COCc2ccc(F)cc2Cl)C1)OCc1ccccc1 (stereo not drawn)
3. Cc1cccc(NC(=O)CCC2CCN(C(=O)CCOc3ccccc3)CC2)c1

Marked response:
1: < 25%; 2: < 25%; 3: 26 to 50%

Give measured inhibition at 4 µM for every item shown.
1. CCOCCCN(CC(=O)N(Cc1ccc2c(c1)OCO2)Cc1sccc1C)C(=O)NC(C)(C)C
2. Cc1c(C(=O)NCc2ccco2)cnn1-c1ccccc1
3. COCCCN(CC(=O)N1CCc2sccc2C1c1ccc(OC)cc1)C(=O)C(C)(C)CCl (stereo not drawn)

Marked response:
["< 25%", "26 to 50%", "< 25%"]

---

target: OR28/OR7 (Anopheles gambiae, UniProt A0A1S4GFY3+Q7QCC7); assay: Ca2+-imaging of stable HEK293T cell line OR28/OR7; type: cell-based; conditions: Table B; read-out: IC50 OR28
Sequence (A0A1S4GFY3 entry or part of it): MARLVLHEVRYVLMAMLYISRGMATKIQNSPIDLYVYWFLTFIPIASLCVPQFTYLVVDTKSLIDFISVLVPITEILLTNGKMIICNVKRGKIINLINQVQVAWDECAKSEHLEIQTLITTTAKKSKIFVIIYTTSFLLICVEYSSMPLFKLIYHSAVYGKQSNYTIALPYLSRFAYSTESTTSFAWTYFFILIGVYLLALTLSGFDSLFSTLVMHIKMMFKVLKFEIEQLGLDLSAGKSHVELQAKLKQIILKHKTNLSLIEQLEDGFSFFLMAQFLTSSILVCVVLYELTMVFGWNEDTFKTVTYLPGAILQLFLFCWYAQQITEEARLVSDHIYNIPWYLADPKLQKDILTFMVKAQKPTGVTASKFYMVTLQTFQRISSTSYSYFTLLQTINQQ
Sequence (Q7QCC7 whole entry): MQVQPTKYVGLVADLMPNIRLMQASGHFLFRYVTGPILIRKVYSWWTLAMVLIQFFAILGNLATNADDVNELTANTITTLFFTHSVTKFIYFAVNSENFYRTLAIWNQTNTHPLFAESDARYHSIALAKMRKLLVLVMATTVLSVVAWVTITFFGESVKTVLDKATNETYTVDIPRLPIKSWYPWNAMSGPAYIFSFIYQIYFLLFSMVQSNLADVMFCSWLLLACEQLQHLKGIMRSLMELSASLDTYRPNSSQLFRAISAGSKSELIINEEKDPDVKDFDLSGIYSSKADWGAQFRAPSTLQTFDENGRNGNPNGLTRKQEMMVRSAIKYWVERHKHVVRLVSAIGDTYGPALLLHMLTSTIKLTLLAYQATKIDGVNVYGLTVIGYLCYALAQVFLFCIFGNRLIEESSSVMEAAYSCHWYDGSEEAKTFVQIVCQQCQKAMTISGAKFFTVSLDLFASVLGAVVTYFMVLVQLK
assay-endpoint: IC50

{"molecule": "CC(C)N(Cc1nccn1Cc1c(F)cccc1Cl)C(=O)c1ccc(Cl)cc1", "IC50": "< 100 nM"}

Give measured IC50 for every item shown.
1. CCNc1nc(NC(C)C)nc(N(C#N)Cc2ccccc2)n1
2. O=C(c1cccnc1Cl)N1CCOC(COCc2c(Cl)cccc2Cl)C1 (centres unmarked)
3. COc1cccc(-c2nnc(SCCCC(=O)N3CCN(C(=O)CC(C)(C)C)C(C)C3)n2-c2ccc(C)cc2)c1 (centres unmarked)
4. C=CCN(Cc1nccn1Cc1ccccc1C)C(=O)CC(C)C
5. Cc1ccc(-c2nnc(SCCCC(=O)N3CCN(C(=O)c4cccc(F)c4)C(C)C3)n2-c2ccc(C)cc2)cc1 (centres unmarked)
6. O=C(c1c(F)c(F)cc(F)c1F)N1CCOC(Cc2ccccc2)C1 (centres unmarked)
7. COCCCN(Cc1c(-c2ccccc2)noc1N(C)C(C)C)C(=O)c1ccccc1OC
8. COc1ccc(-c2nnc(SCc3ccc(C#N)cc3)n2-c2ccc(C)cc2)cc1

Marked response:
1: < 100 nM; 2: < 100 nM; 3: < 100 nM; 4: < 100 nM; 5: < 100 nM; 6: < 100 nM; 7: < 100 nM; 8: > 1000 nM

Give measured IC50 for every item shown.
1. COCCNC(=O)c1ccc(CSc2nnc(-c3ccc(C)cc3)n2-c2ccccc2C)cc1
2. O=C(c1cccc(F)c1)N(Cc1c(-c2ccccc2)noc1N1CCCC1)CC1CCCO1 (centres unmarked)
3. COc1ccc(-c2cc(-c3ccccc3)n(C(=O)CN3CCN(Cc4ccccc4)CC3)n2)cc1
4. COC(=O)C(Cc1ccccc1)NC(=O)C1CC1(c1ccccc1)c1ccccc1 (centres unmarked)
5. CCCCCCCC(=O)N1CCCC(C(=O)NC2CCCC[C@H]2NC(=O)c2ccccc2C)C1 (some centres unmarked)
6. CCOCCCN(CC(=O)N(Cc1ccc2c(c1)OCO2)Cc1sccc1C)C(=O)NC(C)(C)C
7. C=CCOc1cccc(C(=O)N2CCCC(C(=O)c3ccccc3OC)C2)c1 (centres unmarked)
8. CCOC(=O)C(c1cccc(OC)c1)C1C=CC(NC(=O)c2cccs2)C1 (centres unmarked)

Marked response:
1: 100 to 1000 nM; 2: < 100 nM; 3: < 100 nM; 4: < 100 nM; 5: > 1000 nM; 6: < 100 nM; 7: < 100 nM; 8: > 1000 nM
